Sourced from patent US5736294A

- study.target: T1, HIV-1 Tat 25-mer peptide (tat25) (Human immunodeficiency virus 1, UniProt P69698 SEQ:1-25)
- T1 chain: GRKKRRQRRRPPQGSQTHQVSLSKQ
- method.summary: EMSA; 1:1 KD; repeated in Table 4
- condition.label: protein: synthetic, tags: peptide fragment, label: 32P, hairpin, stem-bulge-loop
pKd: −log10 of the molar value.

| binder | pKd |
| --- | --- |
| GCCAGAUCUGAGCCUGGGAGCUCUCUGGC (ssRNA, 2'-OMe throughout) [2'-OMe deltaTAR #2306 29-mer (16-45 -A17)] | 7.50 |
